- Protocol Description: Gas (ozone) resistance of the printed images
- Assay type: physicochemical
- Run Conditions: grade of color difference ΔE; ink with 6 portions dye on glossy photo paper; 40 ppm ozone, 60% RH, 24° C.

{"columns": ["Compound", "Ozone resistance of printed images"],
 "data": [
  ["CN(c1nc(Oc2cc(C(=O)O)cc(C(=O)O)c2)nc(N(CCO)CCO)n1)c1cc(S(=O)(=O)O)c(Nc2cc(S(=O)(=O)O)c3[nH]c(=O)c(C(=O)c4cccc(S(=O)(=O)O)c4)c4c3c2C(=O)c2ccccc2-4)cc1S(=O)(=O)O", "Δ (ΔE<20 Δ)"],
  ["O=C(O)c1cc(Oc2nc(Nc3cc(Nc4cc(S(=O)(=O)O)c5[nH]c(=O)c(C(=O)c6cccc(S(=O)(=O)O)c6)c6c5c4C(=O)c4ccccc4-6)c(S(=O)(=O)O)cc3S(=O)(=O)O)nc(N(CCO)CCO)n2)cc(C(=O)O)c1 [Dye D2]", "∘ (ΔE<10 ∘)"],
  ["CC(=O)Nc1cc(Nc2cc(S(=O)(=O)O)c3[nH]c(=O)c(C(=O)c4cccc(S(=O)(=O)O)c4)c4c3c2C(=O)c2ccccc2-4)c(S(=O)(=O)O)cc1S(=O)(=O)O", "∘ (ΔE<10 ∘)"],
  ["Cc1ccc(S(=O)(=O)Nc2cc(Nc3cc(S(=O)(=O)O)c4[nH]c(=O)c(C(=O)c5cccc(S(=O)(=O)O)c5)c5c4c3C(=O)c3ccccc3-5)c(S(=O)(=O)O)cc2S(=O)(=O)O)cc1", "Δ (ΔE<20 Δ)"],
  ["CCN(CC)CCS(=O)(=O)c1cc(Nc2cc(S(=O)(=O)O)c3[nH]c(=O)c(C(=O)c4cccc(S(=O)(=O)O)c4)c4c3c2C(=O)c2ccccc2-4)c(S(=O)(=O)O)cc1S(=O)(=O)O", "∘ (ΔE<10 ∘)"],
  ["CCN(CC)CCS(=O)(=O)c1ccc(S(=O)(=O)O)c(Nc2cc(S(=O)(=O)O)c3[nH]c(=O)c(C(=O)c4cccc(S(=O)(=O)O)c4)c4c3c2C(=O)c2ccccc2-4)c1", "∘ (ΔE<10 ∘)"],
  ["CC(=O)Nc1cc(Nc2ccc3[nH]c(=O)c(C(=O)c4cccc(S(=O)(=O)O)c4)c4c3c2C(=O)c2ccccc2-4)c(S(=O)(=O)O)cc1S(=O)(=O)O [Dye2, reference compound]", "Δ (ΔE<20 Δ)"],
  ["O=C(c1cccc(S(=O)(=O)O)c1)c1c2c3c(c(Nc4cc(S(=O)(=O)CCSCCCS(=O)(=O)O)ccc4S(=O)(=O)O)cc(S(=O)(=O)O)c3[nH]c1=O)C(=O)c1ccccc1-2", "∘ (ΔE<10 ∘)"],
  ["O=C(O)c1cc(Oc2nc(Nc3cc(Nc4cc(S(=O)(=O)O)c5[nH]c(=O)c(C(=O)c6cccc(S(=O)(=O)O)c6)c6c5c4C(=O)c4ccccc4-6)c(S(=O)(=O)O)cc3S(=O)(=O)O)nc(Oc3cc(C(=O)O)cc(C(=O)O)c3)n2)cc(C(=O)O)c1 [Dye D1]", "∘ (ΔE<10 ∘)"],
  ["O=C(c1cccc(S(=O)(=O)O)c1)c1c2c3c(c(Nc4ccc(S(=O)(=O)O)cc4S(=O)(=O)O)cc(S(=O)(=O)O)c3[nH]c1=O)C(=O)c1ccccc1-2", "∘ (ΔE<10 ∘)"],
  ["CCN(CC)CCS(=O)(=O)c1ccc(S(=O)(=O)O)c(Nc2ccc3[nH]c(=O)c(C(=O)c4cccc(S(=O)(=O)O)c4)c4c3c2C(=O)c2ccccc2-4)c1 [Dye1, reference compound]", "Δ (ΔE<20 Δ)"],
  ["O=C(c1cccc(S(=O)(=O)O)c1)c1c2c3c(c(Nc4cc(S(=O)(=O)CCSCCCS(=O)(=O)O)c(S(=O)(=O)O)cc4S(=O)(=O)O)cc(S(=O)(=O)O)c3[nH]c1=O)C(=O)c1ccccc1-2", "∘ (ΔE<10 ∘)"]
]}

====

- Protocol Description: Printed images light resistance test with xenon lamp
- Assay type: physicochemical
- Run Conditions: grade of color difference ΔE; ink with 6 portions dye on glossy photo paper; xenon lamp 0.36 W/m^2, 50 h, 60% RH, 24° C.

{"columns": ["Compound", "UV resistance of printed images"],
 "data": [
  ["O=C(O)c1cc(Oc2nc(Nc3cc(Nc4cc(S(=O)(=O)O)c5[nH]c(=O)c(C(=O)c6cccc(S(=O)(=O)O)c6)c6c5c4C(=O)c4ccccc4-6)c(S(=O)(=O)O)cc3S(=O)(=O)O)nc(N(CCO)CCO)n2)cc(C(=O)O)c1 [Dye D2]", "∘ (ΔE<10 ∘)"],
  ["CCN(CC)CCS(=O)(=O)c1cc(Nc2cc(S(=O)(=O)O)c3[nH]c(=O)c(C(=O)c4cccc(S(=O)(=O)O)c4)c4c3c2C(=O)c2ccccc2-4)c(S(=O)(=O)O)cc1S(=O)(=O)O", "∘ (ΔE<10 ∘)"],
  ["Cc1ccc(S(=O)(=O)Nc2cc(Nc3cc(S(=O)(=O)O)c4[nH]c(=O)c(C(=O)c5cccc(S(=O)(=O)O)c5)c5c4c3C(=O)c3ccccc3-5)c(S(=O)(=O)O)cc2S(=O)(=O)O)cc1", "∘ (ΔE<10 ∘)"]
]}

All figures here come from patent US8968453B2.
